System: PC-3 PIP/flu tumor-bearing mice
PROTOCOL SUMMARY: Biodistribution studies in PC-3 PIP/flu tumor-bearing mice
CONDITION CONTEXT: 48 h p.i.
Would you mind telling me the reported Stomach of each entry?

The compound listed as O=C(O)CCC(NC(=O)NC(CCCCNC(=O)C(Cc1ccc2ccccc2c1)NC(=O)C1CCC(CNC(=O)C(CCCCNC(=O)CCCc2ccc(I)cc2)NC(=O)CN2CCN(CC(=O)O)CCN(CC(=O)O)CCN(CC(=O)O)CC2)CC1)C(=O)O)C(=O)O (stereo not shown) [^177Lu-PSMA-ALB-03, metal not drawn] shows Stomach equal to 1.49 ± 0.48 % IA/g

The compound listed as O=C(O)CCC(NC(=O)NC(CCCCNC(=O)C(Cc1ccc2ccccc2c1)NC(=O)C1CCC(n2cc(CC(NC(=O)CN3CCN(CC(=O)O)CCN(CC(=O)O)CCN(CC(=O)O)CC3)C(=O)NC(CCCCNC(=O)CCCc3ccc(I)cc3)C(=O)O)nn2)CC1)C(=O)O)C(=O)O (stereo not shown) [^177Lu-PSMA-ALB-01, metal not drawn] shows Stomach equal to 1.49 ± 0.47 % IA/g

The compound listed as O=C(O)CCC(NC(=O)NC(CCCCNC(=O)C(Cc1ccc2ccccc2c1)NC(=O)C1CCC(CNC(=O)C(CCCCNC(=O)CN2CCN(CC(=O)O)CCN(CC(=O)O)CCN(CC(=O)O)CC2)NC(=O)CC(NC(=O)CC(NC(=O)CCCc2ccc(I)cc2)C(=O)O)C(=O)O)CC1)C(=O)O)C(=O)O (stereo not shown) [^177Lu-PSMA-ALB-05, metal not drawn] shows Stomach equal to 0.29 ± 0.08 % IA/g

The compound listed as O=C(O)CCC(NC(=O)NC(CCCCNC(=O)C(Cc1ccc2ccccc2c1)NC(=O)C1CCC(CNC(=O)C(CCCCNC(=O)CN2CCN(CC(=O)O)CCN(CC(=O)O)CCN(CC(=O)O)CC2)NC(=O)CCCCCCC(=O)NC(CCCCNC(=O)CCCc2ccc(I)cc2)C(=O)O)CC1)C(=O)O)C(=O)O (stereo not shown) [^177Lu-PSMA-ALB-04, metal not drawn] shows Stomach equal to 5.04 ± 0.35 % IA/g

====

System: PC-3 PIP/flu tumor-bearing mice
PROTOCOL SUMMARY: Biodistribution studies in PC-3 PIP/flu tumor-bearing mice
CONDITION CONTEXT: 192 h p.i.
Would you mind telling me the reported Heart of each entry?
Quick reminder: number only, in % IA/g, skip the unit.

The compound listed as O=C(O)CCC(NC(=O)NC(CCCCNC(=O)C(Cc1ccc2ccccc2c1)NC(=O)C1CCC(CNC(=O)C(CCCCNC(=O)CCCc2ccc(I)cc2)NC(=O)CN2CCN(CC(=O)O)CCN(CC(=O)O)CCN(CC(=O)O)CC2)CC1)C(=O)O)C(=O)O (stereo not shown) [^177Lu-PSMA-ALB-03, metal not drawn] shows Heart equal to 2.08

The compound listed as O=C(O)CCC(NC(=O)NC(CCCCNC(=O)C(Cc1ccc2ccccc2c1)NC(=O)C1CCC(CNC(=O)C(CCCCNC(=O)CN2CCN(CC(=O)O)CCN(CC(=O)O)CCN(CC(=O)O)CC2)NC(=O)CCCCCCC(=O)NC(CCCCNC(=O)CCCc2ccc(I)cc2)C(=O)O)CC1)C(=O)O)C(=O)O (stereo not shown) [^177Lu-PSMA-ALB-04, metal not drawn] shows Heart equal to 1.73

The compound listed as O=C(O)CCC(NC(=O)NC(CCCCNC(=O)C(Cc1ccc2ccccc2c1)NC(=O)C1CCC(CNC(=O)C(CCCCNC(=O)CN2CCN(CC(=O)O)CCN(CC(=O)O)CCN(CC(=O)O)CC2)NC(=O)CC(NC(=O)CC(NC(=O)CCCc2ccc(I)cc2)C(=O)O)C(=O)O)CC1)C(=O)O)C(=O)O (stereo not shown) [^177Lu-PSMA-ALB-05, metal not drawn] shows Heart equal to 0.59

The compound listed as O=C(O)CCC(NC(=O)NC(CCCCNC(=O)C(Cc1ccc2ccccc2c1)NC(=O)C1CCC(n2cc(CC(NC(=O)CN3CCN(CC(=O)O)CCN(CC(=O)O)CCN(CC(=O)O)CC3)C(=O)NC(CCCCNC(=O)CCCc3ccc(I)cc3)C(=O)O)nn2)CC1)C(=O)O)C(=O)O (stereo not shown) [^177Lu-PSMA-ALB-01, metal not drawn] shows Heart equal to 2.12

====

Would you mind telling me the reported Blood of each entry?
Tested on: PC-3 PIP/flu tumor-bearing mice
PROTOCOL SUMMARY: Biodistribution studies in PC-3 PIP/flu tumor-bearing mice
CONDITION CONTEXT: 4 h p.i.
Quick reminder: number only, in % IA/g, skip the unit.

The compound listed as Cc1ccc(CCCC(=O)NCCCCC(NC(=O)CN2CCN(CC(=O)O)CCN(CC(=O)O)CCN(CC(=O)O)CC2)C(=O)NCC2CCC(C(=O)NC(Cc3ccc4ccccc4c3)C(=O)NCCCCC(NC(=O)NC(CCC(=O)O)C(=O)O)C(=O)O)CC2)cc1 (centres unmarked) [^177Lu-PSMA-ALB-06, metal not drawn] shows Blood equal to 16.2

The compound listed as Cc1ccc(CCCC(=O)NCCCCC(NC(=O)CN2CCN(CC(=O)O)CCN(CC(=O)O)CCN(CC(=O)O)CC2)C(=O)NCC2CCC(C(=O)NC(Cc3ccc4ccccc4c3)C(=O)NCCCCC(NC(=O)NC(CCC(=O)O)C(=O)O)C(=O)O)CC2)cc1 (centres unmarked) [44Sc-PSMA-ALB-06, metal not drawn] shows Blood equal to 18.4

====

System: PC-3 PIP/flu tumor-bearing mice
PROTOCOL SUMMARY: Biodistribution studies in PC-3 PIP/flu tumor-bearing mice
CONDITION CONTEXT: 24 h p.i.
MEASURE: Stomach (% IA/g)
Quick reminder: number only, in % IA/g, skip the unit.

The measured Stomach that O=C(O)CCC(NC(=O)NC(CCCCNC(=O)C(Cc1ccc2ccccc2c1)NC(=O)C1CCC(CNC(=O)C(CCCCNC(=O)CN2CCN(CC(=O)O)CCN(CC(=O)O)CCN(CC(=O)O)CC2)NC(=O)CC(NC(=O)CC(NC(=O)CC(NC(=O)CCCc2ccc(I)cc2)C(=O)O)C(=O)O)C(=O)O)CC1)C(=O)O)C(=O)O (stereo not shown) [^177Lu-PSMA-ALB-07, metal not drawn] showed for PC-3 PIP/flu tumor-bearing mice is 0.18

The measured Stomach that O=C(O)CCC(NC(=O)NC(CCCCNC(=O)C(Cc1ccc2ccccc2c1)NC(=O)C1CCC(CNC(=O)C(CCCCNC(=O)CN2CCN(CC(=O)O)CCN(CC(=O)O)CCN(CC(=O)O)CC2)NC(=O)CCCCCCC(=O)NC(CCCCNC(=O)CCCc2ccc(I)cc2)C(=O)O)CC1)C(=O)O)C(=O)O (stereo not shown) [^177Lu-PSMA-ALB-04, metal not drawn] showed for PC-3 PIP/flu tumor-bearing mice is 6.18

The measured Stomach that O=C(O)CCC(NC(=O)NC(CCCCNC(=O)C(Cc1ccc2ccccc2c1)NC(=O)C1CCC(n2cc(CC(NC(=O)CN3CCN(CC(=O)O)CCN(CC(=O)O)CCN(CC(=O)O)CC3)C(=O)NC(CCCCNC(=O)CCCc3ccc(I)cc3)C(=O)O)nn2)CC1)C(=O)O)C(=O)O (stereo not shown) [^177Lu-PSMA-ALB-01, metal not drawn] showed for PC-3 PIP/flu tumor-bearing mice is 1.39

The measured Stomach that Cc1ccc(CCCC(=O)NCCCCC(NC(=O)CN2CCN(CC(=O)O)CCN(CC(=O)O)CCN(CC(=O)O)CC2)C(=O)NCC2CCC(C(=O)NC(Cc3ccc4ccccc4c3)C(=O)NCCCCC(NC(=O)NC(CCC(=O)O)C(=O)O)C(=O)O)CC2)cc1 (stereo not shown) [^177Lu-PSMA-ALB-06, metal not drawn] showed for PC-3 PIP/flu tumor-bearing mice is 0.28

The measured Stomach that O=C(O)CCC(NC(=O)NC(CCCCNC(=O)C(Cc1ccc2ccccc2c1)NC(=O)C1CCC(CNC(=O)C(CCCCNC(=O)CN2CCN(CC(=O)O)CCN(CC(=O)O)CCN(CC(=O)O)CC2)NC(=O)CC(NC(=O)CC(NC(=O)CCCc2ccc(I)cc2)C(=O)O)C(=O)O)CC1)C(=O)O)C(=O)O (stereo not shown) [^177Lu-PSMA-ALB-05, metal not drawn] showed for PC-3 PIP/flu tumor-bearing mice is 0.28

The measured Stomach that O=C(O)CCC(NC(=O)NC(CCCCNC(=O)C(Cc1ccc2ccccc2c1)NC(=O)C1CCC(CNC(=O)C(CCCCNC(=O)CCCc2ccc(I)cc2)NC(=O)CN2CCN(CC(=O)O)CCN(CC(=O)O)CCN(CC(=O)O)CC2)CC1)C(=O)O)C(=O)O (stereo not shown) [^177Lu-PSMA-ALB-03, metal not drawn] showed for PC-3 PIP/flu tumor-bearing mice is 1.39

The measured Stomach that Cc1ccc(CCCC(=O)NC(CC(=O)NC(CC(=O)NC(CC(=O)NC(CCCCNC(=O)CN2CCN(CC(=O)O)CCN(CC(=O)O)CCN(CC(=O)O)CC2)C(=O)NCC2CCC(C(=O)NC(Cc3ccc4ccccc4c3)C(=O)NCCCCC(NC(=O)NC(CCC(=O)O)C(=O)O)C(=O)O)CC2)C(=O)O)C(=O)O)C(=O)O)cc1 (stereo not shown) [^177Lu-PSMA-ALB-08, metal not drawn] showed for PC-3 PIP/flu tumor-bearing mice is 0.03
